Data credit: patent US20130004513A1

Target desc: Human CD4 on CD4+CD25+ regulatory T cells of healthy donors (human, UniProt P01730 26-458)
Test name: cell-based or functional assay
Recorded metric: Avg. % inhibition (%)
Give a bare numeral; the unit % is implied.

1) LC master HC R33K (antibody, V domains shown) VH: EEQLVESGGGLVKPGGSLRLSCAASGFSFSDCKMYWLRQAPGKGLEWIGVISVKSENYGANYAESVRGRFTISRDDSKNTVYLQMNSLKTEDTAVYYCSASYYRYDVGAWFAYWGQGTLVTVSS VL: DIVMTQSPDSLAVSLGERATINCRASKSVSTSGYSYIYWYQQKPGQPPKLLIYLASILESGVPDRFSGSGSGTDFTLTISSLQAEDVAVYYCQHSRELPWTFGQGTKVEIKR :: 17.9

Note: attention shifts to another entry.
Data request: Tell me the measured Avg. % inhibition of LC master HC S101T (antibody, V domains shown) VH: EEQLVESGGGLVKPGGSLRLSCAASGFSFSDCRMYWLRQAPGKGLEWIGVISVKSENYGANYAESVRGRFTISRDDSKNTVYLQMNSLKTEDTAVYYCSATYYRYDVGAWFAYWGQGTLVTVSS VL: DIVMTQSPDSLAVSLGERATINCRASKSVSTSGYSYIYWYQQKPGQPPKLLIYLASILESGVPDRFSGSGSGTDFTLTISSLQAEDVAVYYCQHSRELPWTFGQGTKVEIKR , please.
Data returned: -0.2
